Reference source: PubChem BioAssay (NCATS)

assay: Quantitative High-Throughput drug screen in 47 multiple myeloma cell lines against the NCATS MIPE library collection: KMS12PE_JCRB cell viability assay (AID 1918972); conditions: KMS12PE myeloma viability, CellTiter-Glo ATP, 48 h; series mostly up to 45.8 µM; further: nearly all actives have a fitted effect of over 30% in size;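 on viability: 100% = DMSO only wells and 0% = wells with media alone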
Inconclusive results are not listed. Active and inactive are the calls of the source. The call rests on the fitted dose curve; in most records, active means well fitted cell-killing curve with a large enough effect; inconclusive means small, poorly fitted or top-dose-only effect, or effect the other way; inactive means no such curve, though single readings can be large or run the other way.
Please answer using one outcome listed in t for active, f for inactive

# example entries with known answers
Compound: O=c1[nH]c(=O)n(C2CCCO2)cc1F (configuration not stated)
Label Value: f
//
Compound: CC(C)c1cc(C(=O)N2Cc3ccc(CN4CCN(C)CC4)cc3C2)c(O)cc1O
Label Value: t
//
Compound: c1cc(-c2cnn3cc(-c4ccc(OCCN5CCCCC5)cc4)cnc23)ccn1
Label Value: f

Ask: Short answer needed: outcome of this test for O=C(O)CO.[NH2-].[NH2-].[Pt+2] ?
Result: f

Ask: Hi, do you know how CN(C)CC=CC(=O)Nc1cc2c(Nc3ccc(F)c(Cl)c3)ncnc2cc1O[C@H]1CCOC1 came out in this test?
Result: t

Ask: Hi team, can someone confirm the assay call for O=C(c1ccc(Nc2nccc(-c3cc4ccccc4s3)n2)cc1)N1CCC(N2CCCC2)CC1 ?
Result: t

Ask: Returns: the outcome recorded for Cc1ccc(C(=O)Nc2ccc(CN3CCN(C)CC3)c(C(F)(F)F)c2)cc1C#Cc1cnc2cccnn12 in this assay.
Result: t

---

assay: qHTS of pediatric cancer cell lines to identify multiple opportunities for drug repurposing: Primary screen for SK-N-MC cells (AID 1347093); details: SK-N-MC viability, CellTiter-Glo luminescence, 48 h; series mostly up to 46 µM; further: potency means the concentration at half of the fitted maximal effect
Inconclusive results are not listed. Activity calls are given as the source filed them. Calls follow the shape of the dose curve; as a rule, active = well fitted cell-killing curve with a large enough effect; inconclusive = small, poorly fitted or top-dose-only effect; inactive = no such curve, though single readings can be large or run the other way.
# output must be one of 1 for active, -1 for inactive

// known answers, use as guide
Compound: Cc1cnc(-c2cnc(NCCNc3ccc(C#N)cn3)nc2-c2ccc(Cl)cc2Cl)[nH]1
Label Value: 1
--
Compound: COc1cccc(-c2ccc(NC(=O)C3=C(C(=O)O)CCC3)c(F)c2)c1
Label Value: 1

Ask: Per the assay record, what outcome was assigned to Fc1cc(-c2cccc3ncc(-c4cnn(C5CCNCC5)c4)nc23)cc(F)c1CN1CCOCC1 ?
Result: 1

Ask: Identify the outcome logged in this assay for the compound shown: C=CC(=O)Nc1cccc(Oc2nc(Nc3ccc(N4CCN(C)CC4)cc3)ncc2Cl)c1
Result: 1

Ask: Short answer needed: outcome of this test for COc1ccc(-c2cc3c(C)nc(N)nc3n(C3CCC(OCCO)CC3)c2=O)cn1 (stereo not drawn) ?
Result: 1

---

assay: qHTS Screen of the MIPE 4.0 Collection Against Ewings Sarcoma (TC71) (AID 1259253); settings: TC71 Ewing sarcoma viability, CellTiter-Glo, 48 h; series mostly up to 45.8 µM; further: nearly all actives have a fitted effect of over 40% in size
Records with an inconclusive call do not appear. Activity calls are given as the source filed them. The call rests on the fitted dose curve; in most records, active means well fitted inhibition curve with a large enough effect; inconclusive means small, poorly fitted or top-dose-only effect; inactive means no such curve, though single readings can be large or run the other way.
Lab note: assign the record to one of active, inactive

Compound String: Cc1ccc(-c2ncn(-c3ccc(Nc4nccc(-c5cccc(N6CCOCC6)c5)n4)cc3)n2)cn1
Label Value: active

Ask: Name the outcome recorded for Cc1ccc(C(N)=O)cc1Nc1nccc(-c2cn(C(C)C)c3cnccc23)n1 in the assay.
Result: active

Ask: I would be grateful if you could indicate the recorded call for CC(C)(C)c1cc(NC(=O)Nc2ccc(-c3cn4c(n3)sc3cc(OCCN5CCOCC5)ccc34)cc2)no1 .
Result: inactive

---

I'd be grateful if you could share measured Potency for these entries.
experiment: Quantitative High-Throughput drug screen in 47 multiple myeloma cell lines against the NCATS MIPE library collection: UTMC2_PLB cell viability assay (AID 1919868); conditions: CellTiter-Glo ATP luminescence, 48 h; further: potency means the concentration at half of the fitted maximal effect; nearly all actives have a fitted effect of over 55% in size
Inconclusive results are not listed. The source made the active and inactive calls. The call rests on the fitted dose curve; in most records, active means well fitted cell-killing curve with a large enough effect; inconclusive means small, poorly fitted or top-dose-only effect, or effect the other way; inactive means no such curve, though single readings can be large or run the other way.

# annotated cases, reported Potency shown
Compound String: COc1cc(C(C)C)c2c(c1)S(=O)(=O)N(COc1cc(=O)n3cccc(OCCN4CCCCC4)c3n1)C2=O
Val: 26.4 µM (active)

Compound String: CN1CCC(CNc2ccc3ncc(-c4cccc(OC(F)(F)F)c4)n3n2)CC1
Val: 5.9 µM (active)

Compound String: CN1CCN(Cc2ccc(NC(=O)Nc3ccc(Oc4cc(NC(=O)C5CC5)ncn4)cc3)cc2C(F)(F)F)CC1
Val: 0.132 µM (active)

Compound String: Cc1cc(Nc2cc(N3CCN(C)CC3)nc(Sc3ccc(NC(=O)C4CC4)cc3)n2)n[nH]1
Val: 0.001 µM (active)

Compound String: CNC(=O)c1cc(Oc2ccc(NC(=O)Nc3cc(C(C)(C)C)nn3-c3ccc4ncccc4c3)c(F)c2)ccn1
Val: 4.18 µM (active)

Compound String: O=c1[nH]nc(Sc2ncc([N+](=O)[O-])s2)n1-c1ccc2c(c1)OCCO2
Val: 2.35 µM (active)

Compound String: CN(c1ncccc1CNc1nc(Nc2ccc3c(c2)CC(=O)N3)ncc1C(F)(F)F)S(C)(=O)=O
Val: 2.35 µM (active)

Compound String: C#Cc1cccc(Nc2ncnc3cc(OC)c(OCCCCCCC(=O)NO)cc23)c1
Val: 0.0187 µM (active)

Compound String: COc1cc2ncnc(Nc3ccc(F)c(Cl)c3)c2cc1NC(=O)C=CCN1CCCCC1
Val: 10.5 µM (active)

Compound String: Cc1cc(N2CCOCC2)cc2[nH]c(-c3c(NC[C@@H](O)c4cccc(Cl)c4)cc[nH]c3=O)nc12
Val: 0.0662 µM (active)

Note: attention shifts to another entry.
Ask: Consider the compound C[C@@H]1CN(CC(=O)Nc2ccc3c(c2)Cc2cccc(-c4cc(=O)cc(N5CCOCC5)o4)c2S3)C[C@H](C)O1 and give its measured Potency.
Result: 6.62 µM (active)

---

experiment: qHTS of pediatric cancer cell lines to identify multiple opportunities for drug repurposing: Confirmatory screen for SK-N-SH cells (AID 1347129); conditions: SK-N-SH neuroblastoma cell viability; series mostly up to 46.1 µM;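 further: cells exposed to compound for 48 h before viability read; nearly all actives have a fitted effect of over 60% in size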
Results filed as inconclusive are left out. Active and inactive are the calls of the source. Calls come from the whole dose curve; as a rule, active = well fitted cell-killing curve with a large enough effect; inconclusive = small, poorly fitted or top-dose-only effect; inactive = flat fitted curve, though single readings scatter.
Lab note: assign the record to one of 1.0 for active, 0.0 for inactive

Below are worked cases with known answers.
Compound String: CC(C)(O)c1cc2nc(-c3cnc(N)nc3)nc(N3CCOCC3)c2s1
Label Value: 1.0

Compound String: O=C(Nc1cc(C(F)(F)F)cc(C(F)(F)F)c1)c1cc(Cl)ccc1O
Label Value: 1.0

Compound String: C#Cc1cccc(Nc2ncnc3cc(OC)c(OCCCCCCC(=O)NO)cc23)c1
Label Value: 1.0

Compound String: Cc1nc2ccc(CN(C)c3ccc(C(=O)N[C@@H](CCC(=O)O)C(=O)O)s3)cc2c(=O)[nH]1
Label Value: 0.0

Ask: What was the test verdict on C[C@@H](Oc1cc(-n2cnc3ccc(CN4CCN(C)CC4)cc32)sc1C(N)=O)c1ccccc1C(F)(F)F ?
Result: 1.0

Ask: Look up the recorded call for Cc1nc(Nc2n[nH]c3c2CN(C(=O)N[C@H](CN(C)C)c2ccccc2)C3(C)C)c2sccc2n1 in this test.
Result: 0.0

---

assay: Quantitative High-Throughput drug screen in 47 multiple myeloma cell lines against the NCATS MIPE library collection: Karpas620_DSMZ cell viability assay (AID 1918959); conditions: Karpas620 myeloma viability, CellTiter-Glo ATP luminescence, 48 h; series mostly up to 45.8 µM; further: nearly all actives have a fitted effect of over 30% in size
Records with an inconclusive call do not appear. The source made the active and inactive calls. Calls come from the whole dose curve; as a rule, active = well fitted cell-killing curve with a large enough effect; inconclusive = small, poorly fitted or top-dose-only effect, or effect the other way; inactive = no such curve, though single readings can be large or run the other way.
API: response.call in active, inactive

See these solved cases before continuing.
Compound String: COc1cc(C(=O)N2CCC(N3CCN(C)CC3)CC2)ccc1Nc1ncc2c(n1)N(C)c1ccccc1C(=O)N2C
Label Value: active
//
Compound String: CC(C)c1nn(-c2c(Cl)cccc2Cl)c2nc(Cc3ccc(OCCO)cc3)[nH]c(=O)c12
Label Value: inactive
//
Compound String: COc1ccc(C=Cc2cc(OC)c(OC)c(OC)c2)cc1O
Label Value: inactive
//
Compound String: CC(C)c1noc(N2CCC(COc3ccc(-c4ccc(S(C)(=O)=O)cc4)nc3)CC2)n1
Label Value: inactive
//
Compound String: CC(C)[C@H](C(=O)Nc1ccc(C(=O)NO)cc1)c1ccccc1
Label Value: active

Ask: Check the results log: what was the call for O=C(Nc1cc(C(F)(F)F)cc(C(F)(F)F)c1)c1cc(Cl)ccc1O ?
Result: active

Ask: Dear all, I need the recorded test outcome for CC(=O)OCC(=O)[C@@]1(O)[C@H](C)C[C@H]2[C@@H]3C=C(C)C4=Cc5c(cnn5-c5ccccc5)C[C@]4(C)[C@@H]3[C@@H](O)C[C@@]21C , thank you.
Result: active

Ask: How did this test come out for COc1cc2nccc(Oc3ccc(NC(=O)C4(C(=O)Nc5ccc(F)cc5)CC4)cc3)c2cc1OC ?
Result: active

---

Task for the reader: assign each of the following compounds its reported Potency.
assay: Quantitative High-Throughput drug screen in 47 multiple myeloma cell lines against the NCATS MIPE library collection: U266_ATCC cell viability assay (AID 1919864); conditions: U266 myeloma viability, CellTiter-Glo ATP luminescence, 48 h; series mostly up to 45.8 µM; further: potency means the concentration at half of the fitted maximal effect; nearly all actives have a fitted effect of over 35% in size
Inconclusive results are not listed. Activity calls are given as the source filed them. Calls follow the shape of the dose curve; as a rule, active = well fitted cell-killing curve with a large enough effect; inconclusive = small, poorly fitted or top-dose-only effect, or effect the other way; inactive = no such curve, though single readings can be large or run the other way.

// solved cases for Potency follow
Compound String: COC(=O)c1ccc2c(C(=Nc3ccc(N(C)C(=O)CN4CCN(C)CC4)cc3)c3ccccc3)c(O)[nH]c2c1
Val: 18.7 µM (active)

Compound String: COc1cc2c(Oc3ccc(-c4cnc(Nc5ccc(F)cc5)n(C)c4=O)cc3F)ccnc2cc1OCCCN1CCOCC1
Val: 20.9 µM (active)

Compound String: C=CC(=O)Nc1cccc(Oc2nc(Nc3ccc(N4CCN(C)CC4)cc3OC)ncc2Cl)c1
Val: 23.5 µM (active)

Provide the reported Potency of each entry below, same order.
1. O=C(Nc1ncc(-c2cc(C(F)F)nn2-c2c(Cl)cccc2Cl)s1)C1CC1
2. Cc1ccc(C(=O)Nc2ccc(CN3CCN(C)CC3)c(C(F)(F)F)c2)cc1C#Cc1cnc2cccnn12
3. Fc1cc(-c2cccc3ncc(-c4cnn(C5CCNCC5)c4)nc23)cc(F)c1CN1CCOCC1

Result:
2.96 µM (active)
14.8 µM (active)
20.9 µM (active)
